Consider the following molecules; for each one, report its Basal_Viability ATP RKO IC50/EC50.
# Tested on: RKO
# Test Name: cells
# Format: cell-based
# Study Conditions: assay number 29; basal
Expressed in µM, but write only the number.

## Task // Basal_Viability ATP RKO IC50/EC50 lookup, key: CSc1ccc2c(c1)N(CCC1CCCCN1C)c1ccccc1S2 (centres unmarked) [NCGC00016059-13]
## Result 5.4868

## Task GET /values?readout=Basal_Viability ATP RKO IC50/EC50&item= O=C(CCl)c1ccc(Cl)cc1Cl [NCGC00091258-05]
## Result 4.299

## Task What does the record list as Basal_Viability ATP RKO IC50/EC50 for C=Cc1c(C)c2cc3nc(cc4[nH]c(cc5nc(cc1[nH]2)C(C)=C5CCC(=O)O)c(CCC(=O)OC)c4C)[C@@]1(C)C3=CC=C(C(=O)OC)[C@@H]1C(=O)OC [NCGC00344558-01] ?
## Result 3.5296

## Task Which Basal_Viability ATP RKO IC50/EC50 value belongs to Nc1nc(Cl)nc2c1ncn2[C@@H]1O[C@H](CO)[C@@H](O)[C@@H]1F [NCGC00164553-02] ?
## Result 0.001

## Task Can you share its Basal_Viability ATP RKO IC50/EC50? I mean this molecule: COc1cccc2c1C(=O)c1c(O)c3c(c(O)c1C2=O)C[C@@](O)(C(=O)CO)CC3OC1CC(N2CCOC(OC)C2)C(O)C(C)O1 (some centres unmarked) [NCGC00319019-01]
## Result 0.001

## Task Please give the measured Basal_Viability ATP RKO IC50/EC50 for this molecule: CCC(COC(=O)c1cc(OC)c(OC)c(OC)c1)(c1ccccc1)N(C)C.O=C(O)/C=C\C(=O)O (centres unmarked) [NCGC00018269-05]
## Result 0.1424

## Task Please look up its Basal_Viability ATP RKO IC50/EC50: COc1cccc2c1C(=O)c1c(O)c3c(c(O)c1C2=O)C[C@@](O)(C(=O)CO)C[C@@H]3O[C@H]1C[C@H](N)[C@H](O[C@@H]2CCCCO2)[C@H](C)O1 [NCGC00344543-01]
## Result 1.01

## Task Look up Basal_Viability ATP RKO IC50/EC50: CC[C@]1(O)C[C@@H]2CN(CCc3c([nH]c4ccccc34)[C@@](C(=O)OC)(c3cc4c(cc3OC)N(C)[C@H]3[C@@](O)(C(=O)OC)[C@H](OC(C)=O)[C@]5(CC)C=CCN6CC[C@]43[C@@H]65)C2)C1.O=S(=O)(O)O [NCGC00344583-01]
## Result 0.001
